# TESTED_ON: potassium ion channel hERG (Homo sapiens, UniProt Q12809)
# Construct: expressed in transfected cells; host or cells: Chinese hamster ovary K1 (CHO)
# Sequence (Q12809 whole entry): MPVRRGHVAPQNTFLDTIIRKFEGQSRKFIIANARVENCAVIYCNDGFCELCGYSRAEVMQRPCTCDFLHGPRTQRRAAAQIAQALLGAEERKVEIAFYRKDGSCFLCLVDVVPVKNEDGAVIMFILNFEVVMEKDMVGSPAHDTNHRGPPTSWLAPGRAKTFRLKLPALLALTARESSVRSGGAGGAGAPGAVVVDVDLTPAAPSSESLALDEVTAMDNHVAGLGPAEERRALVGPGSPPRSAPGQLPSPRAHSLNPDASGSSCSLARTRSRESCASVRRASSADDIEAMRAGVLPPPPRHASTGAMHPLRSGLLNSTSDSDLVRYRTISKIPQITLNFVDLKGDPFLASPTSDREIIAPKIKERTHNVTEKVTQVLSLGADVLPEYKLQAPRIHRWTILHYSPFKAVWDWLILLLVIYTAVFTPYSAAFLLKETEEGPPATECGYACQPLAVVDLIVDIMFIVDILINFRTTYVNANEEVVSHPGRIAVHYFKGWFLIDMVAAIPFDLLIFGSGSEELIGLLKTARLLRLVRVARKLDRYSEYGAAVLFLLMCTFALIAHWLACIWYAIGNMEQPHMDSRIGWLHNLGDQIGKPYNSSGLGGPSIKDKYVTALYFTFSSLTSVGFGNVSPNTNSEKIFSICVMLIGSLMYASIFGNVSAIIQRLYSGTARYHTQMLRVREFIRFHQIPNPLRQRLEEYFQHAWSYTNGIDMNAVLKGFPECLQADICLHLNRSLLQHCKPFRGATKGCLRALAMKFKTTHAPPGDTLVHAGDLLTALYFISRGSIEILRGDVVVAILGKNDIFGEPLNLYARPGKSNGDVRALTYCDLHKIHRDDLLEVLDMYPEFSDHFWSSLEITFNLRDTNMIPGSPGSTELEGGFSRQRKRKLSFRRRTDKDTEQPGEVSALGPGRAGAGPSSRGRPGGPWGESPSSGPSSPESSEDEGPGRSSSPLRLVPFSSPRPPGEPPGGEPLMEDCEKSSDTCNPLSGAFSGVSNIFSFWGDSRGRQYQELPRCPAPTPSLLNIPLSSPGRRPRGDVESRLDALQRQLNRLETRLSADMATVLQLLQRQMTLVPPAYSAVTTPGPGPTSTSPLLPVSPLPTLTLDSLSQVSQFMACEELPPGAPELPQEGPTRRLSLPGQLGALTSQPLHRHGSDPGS
# ASSAY_METHOD_TEXT: Assay 5 hERG assay (patch clamp, CHO cells over-expressing hERG)
# Assay type: cell-based
# CONDITION_CONTEXT: SyncroPatch 384PE, room temperature, geometric mean, read-out: Assay 5 (hERG Hu CHO if EPh CR-Syncro) GMean IC50
READOUT_TYPE: IC50 (µM)

* Cc1cnc(N[C@H]2CC[C@H](Nc3ccc(-n4ncc5cccnc54)cn3)C2)nn1 | 35
* O=c1c(OC(F)F)cccn1-c1ccc(N[C@H]2CC[C@H](Nc3ncc(C4CC4)nn3)C2)nc1 | 25.5
* Cc1cnc(N[C@H]2CC[C@H](Nc3ccc(-c4ccccc4C#N)cn3)C2)nn1 | 6.6
* COc1cccc(F)c1-c1ccc(N[C@H]2CC[C@H](Nc3ncc(C4CC4)nn3)C2)nc1 | 4.3

###

Here's what we have: Kd numbers for PCSK9 (Homo sapiens).
READOUT_TYPE: Kd

• C#CCNC(=O)c1cnc(N[C@H]2CC[C@H](Nc3ccc(-n4ccccc4=O)cn3)C2)nn1 [Example 69] = 12 nM
• O=c1ccccn1-c1ccc(N[C@H]2CC[C@H](Nc3ncc(C4CC4)nn3)C2)nc1 [Example 50] = 9.8 nM
• N#Cc1ccc(=O)n(-c2ccc(N[C@H]3CC[C@H](Nc4ncc(C5CC5)nn4)C3)nc2)c1 [Example 56] = 7.4 nM
• CN1CC(=O)N(c2ccc(N[C@H]3CC[C@H](Nc4ncc(C5CC5)nn4)C3)nc2)C1=O [Example 57] = 7.5 nM
• Cc1cnc(N[C@H]2CC[C@H](Nc3ccc(-n4cc(Cl)ccc4=O)cn3)C2)nn1 [Example 134] = 9.1 nM

###

# TESTED_ON: PCSK9 (Homo sapiens, UniProt Q8NBP7, G670E/V474I)
# Sequence (Q8NBP7 with tags, fused parts or gaps V474I/G670E): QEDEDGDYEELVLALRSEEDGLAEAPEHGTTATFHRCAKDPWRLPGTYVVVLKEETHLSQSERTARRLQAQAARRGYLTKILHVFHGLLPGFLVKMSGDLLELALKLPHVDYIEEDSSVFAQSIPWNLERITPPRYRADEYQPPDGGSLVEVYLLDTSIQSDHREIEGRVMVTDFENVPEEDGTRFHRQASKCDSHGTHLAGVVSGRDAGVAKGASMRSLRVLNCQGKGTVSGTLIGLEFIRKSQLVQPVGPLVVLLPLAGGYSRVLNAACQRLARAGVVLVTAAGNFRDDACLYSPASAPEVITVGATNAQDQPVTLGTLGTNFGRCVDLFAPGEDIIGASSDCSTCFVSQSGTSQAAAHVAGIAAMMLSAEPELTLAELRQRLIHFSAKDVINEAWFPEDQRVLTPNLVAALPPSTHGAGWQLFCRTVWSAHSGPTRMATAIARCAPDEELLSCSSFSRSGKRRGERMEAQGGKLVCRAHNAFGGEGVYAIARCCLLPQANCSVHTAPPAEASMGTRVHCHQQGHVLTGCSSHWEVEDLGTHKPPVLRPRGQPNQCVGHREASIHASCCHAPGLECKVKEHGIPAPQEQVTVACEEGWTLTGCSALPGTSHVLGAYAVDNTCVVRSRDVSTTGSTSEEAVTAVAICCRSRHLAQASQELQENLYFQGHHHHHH
# ASSAY_METHOD_TEXT: biochemical
pIC50: −log10 of the molar value.
READOUT_TYPE: pIC50

- O=c1ccccn1-c1ccc(N[C@H]2CC[C@H](Nc3ncc(C4CC4)nn3)C2)nc1: 8.10
- Cc1cnc(N[C@H]2CC[C@H](Nc3ccc(-n4c(=O)n(C)c5cc(C#N)ccc54)cn3)C2)nn1: 8.85
- O=C(NC1COC1)c1cnc(N[C@H]2CC[C@H](Nc3ccc(-n4cccc(OC(F)(F)F)c4=O)cn3)C2)nn1: 8.16

###

# TESTED_ON: PCSK9 (Homo sapiens, UniProt Q8NBP7, G670E/V474I)
# ASSAY_METHOD_TEXT: biochemical
READOUT_TYPE: IC50 (nM)

- Cc1cnc(N[C@H]2CC[C@H](Nc3ccc(-n4ccc(Cl)cc4=O)cn3)C2)nn1 [Example 182]: 9.4
- CN1CC(=O)N(c2ccc(N[C@H]3CC[C@H](Nc4ncc(C5CC5)nn4)C3)nc2)C1=O [Example 57]: 11
- Cc1cnc(N[C@H]2CC[C@H](Nc3ccc(-n4cc(-c5cnn(C)c5)ccc4=O)cn3)C2)nn1 [Example 201]: 8.6
- COc1ccn(-c2ccc(N[C@H]3CC[C@H](Nc4ncc(C)nn4)C3)nc2)c(=O)c1 [Example 180]: 6
- O=c1ccncn1-c1ccc(N[C@H]2CC[C@H](Nc3ncc(C4CC4)nn3)C2)nc1 [Example 114]: 7.6
- COc1ccc(=O)n(-c2ccc(N[C@H]3CC[C@H](Nc4ncc(C5CC5)nn4)C3)nc2)c1 [Example 65]: 11.8
- CCSc1cnc(N[C@H]2CC[C@H](Nc3ccc(-n4ccccc4=O)cn3)C2)nn1 [Example 258]: 15
- Cn1cccc(-c2ccc(N[C@H]3CC[C@H](Nc4ncc(C5CC5)nn4)C3)nc2)c1=O [Example 60]: 9.1
- O=c1ccc(Cl)cn1-c1ccc(N[C@H]2CC[C@H](Nc3ncc(C4CC4)nn3)C2)nc1 [Example 112]: 4.7
- COc1ccnn(-c2ccc(N[C@H]3CC[C@H](Nc4ncc(C)nn4)C3)nc2)c1=O [Example 220]: 1.7
- O=c1ccc(-c2cn[nH]c2)cn1-c1ccc(N[C@H]2CC[C@H](Nc3ncc(C4CC4)nn3)C2)nc1 [Example 123]: 1.4
- Cn1c(=O)n(-c2ccc(N[C@H]3CC[C@H](Nc4ncc(C5CC5)nn4)C3)nc2)c2cc(C#N)ccc21 [Example 116]: 0.7
- COc1ccc(=O)n(-c2ccc(N[C@H]3CC[C@H](Nc4ncc(C(=O)NC5COC5)nn4)C3)nc2)c1 [Example 154]: 14
- Cc1cnc(N[C@H]2CC[C@H](Nc3ccc(-c4ncccc4C)cn3)C2)nn1 [Example 248]: 13
- CN(C)c1cnc(N[C@H]2CC[C@H](Nc3ccc(-n4ccccc4=O)cn3)C2)nn1 [Example 256]: 119
- Cc1cnc(N[C@H]2CC[C@H](Nc3ccc(-n4c(=O)n(C)c5ccc(C#N)cc54)cn3)C2)nn1 [Example 210]: 0.9
- COc1cccn(-c2ccc(N[C@H]3CC[C@H](Nc4ncc(C(=O)NC5COC5)nn4)C3)nc2)c1=O [Example 153]: 3.3
- Cc1cnc(N[C@H]2CC[C@H](Nc3ccc(-n4cc(-c5cn[nH]c5)ccc4=O)cn3)C2)nn1 [Example 202]: 3.7
- Cc1ccc(=O)n(-c2ccc(NCC(CCO)CNc3ncc(C)nn3)nc2)c1 (racemic) [Example 316]: 7430
- Cc1cnc(N[C@H]2CC[C@H](Nc3ccc(-n4cc(C#N)ccc4=O)cn3)C2)nn1 [Example 128]: 20
- Cc1cnnc(N[C@H]2CC[C@H](Nc3ccc(-n4ccccc4=O)cn3)C2)n1 [Example 126]: 744
- Cc1cnc(N[C@H]2CC[C@H](Nc3ccc(-n4cccc(C(F)(F)F)c4=O)cn3)C2)nn1 [Example 135]: 2.8
